Tested on: Radical scavenging activity
Assay: Antioxidant activity assessed as DPPH radical scavenging activity at 0.9 mM after 20 min
Type: functional
Note to self: values exactly at 20% are 1.0. So Activity at or above 20% is 1.0, below is 0.0.

Example results:
{"Molecule": "COC(=O)[C@H](Cc1c[nH]c2ccccc12)NC(=O)/C=C/c1ccc(O)cc1", "Label": 0.0}
{"Molecule": "COC(=O)[C@H](Cc1ccc(O)c(O)c1)NC(=O)/C=C/c1cc(OC)c(O)c(OC)c1", "Label": 1.0}
{"Molecule": "O=C(O)/C=C/c1ccc(O)cc1 [COUMARIC ACID]", "Label": 0.0}
{"Molecule": "COC(=O)[C@H](Cc1ccc(O)cc1)NC(=O)/C=C/c1ccc(O)c(O)c1", "Label": 1.0}
{"Molecule": "COC(=O)[C@H](Cc1c[nH]c2ccccc12)NC(=O)/C=C/c1ccc(O)c(O)c1", "Label": 1.0}
{"Molecule": "COC(=O)[C@H](Cc1ccc(O)c(O)c1)NC(=O)/C=C/c1ccc(O)cc1", "Label": 0.0}
{"Molecule": "Cc1c(C)c2c(c(C)c1O)CCC(C)(CCCC(C)CCCC(C)CCCC(C)C)O2 (racemic)", "Label": 1.0}
{"Molecule": "COC(=O)[C@H](Cc1ccccc1)NC(=O)/C=C/c1ccccc1", "Label": 0.0}

Prompt line: Exam item: decide whether the reported Activity for COc1cc(/C=C/C(=O)O)ccc1O [FERULATE] is at least 20%.
Response line: 0.0

Prompt line: Threshold query (Activity >= 20%) on COC(=O)[C@H](Cc1c[nH]c2ccccc12)NC(=O)/C=C/c1ccc(O)c(OC)c1
Response line: 0.0

====

Provide the recorded Activity for the entries that follow.
System: Radical scavenging activity
Test: Antioxidant activity assessed as DPPH radical scavenging activity at 0.9 mM after 20 min
Assay type: functional
Answers are plain numbers, in %.

Some entries whose results are on file:
{"Molecule": "COC(=O)[C@H](Cc1ccc(O)cc1)NC(=O)/C=C/c1cc(OC)c(O)c(OC)c1", "Activity (%)": 15.6}
{"Molecule": "COc1cc(/C=C/C(=O)N[C@@H](Cc2ccccc2)C(=O)OC(C)(C)C)cc(OC)c1O", "Activity (%)": 16.7}
{"Molecule": "O=c1c(O)c(-c2ccc(O)c(O)c2)oc2cc(O)cc(O)c12", "Activity (%)": 45.2}
{"Molecule": "CC(C)(C)OC(=O)[C@H](Cc1ccccc1)NC(=O)/C=C/c1ccc(O)cc1", "Activity (%)": 2.3}
{"Molecule": "COC(=O)[C@H](Cc1ccc(O)cc1)NC(=O)/C=C/c1ccccc1", "Activity (%)": 2.12}
{"Molecule": "COC(=O)[C@H](Cc1ccc(O)cc1)NC(=O)/C=C/c1ccc(O)cc1", "Activity (%)": 0.71}
{"Molecule": "COC(=O)[C@H](Cc1ccc(O)c(O)c1)NC(=O)/C=C/c1ccccc1", "Activity (%)": 26.6}
{"Molecule": "COc1cc(/C=C/C(=O)O)cc(OC)c1O [SINAPINATE]", "Activity (%)": 17.2}
{"Molecule": "COC(=O)[C@H](Cc1ccc(O)c(O)c1)NC(=O)/C=C/c1ccc(O)c(OC)c1", "Activity (%)": 28.5}
{"Molecule": "COC(=O)[C@H](Cc1ccc(O)cc1)NC(=O)/C=C/c1ccc(O)c(OC)c1", "Activity (%)": 8.79}

Batch of 4 molecules: report Activity for each.
1. COc1cc(/C=C/C(=O)N[C@@H](Cc2ccccc2)C(=O)OC(C)(C)C)ccc1O
2. O=C(O)/C=C/c1ccccc1
3. COC(=O)[C@H](Cc1ccccc1)NC(=O)/C=C/c1ccc(O)c(O)c1
4. COC(=O)[C@H](Cc1c[nH]c2ccccc12)NC(=O)/C=C/c1ccccc1

Response line:
[13.5, 0.32, 29.7, 0.69]
